tested on: blackgrass (Alopecurus myosuroides); assay: Test C greenhouse herbicide test, pre- and postemergence; assay type: in vivo; details: Preemergence, 250 g ai/ha; scale 0 to 100, 0 no effect, 100 complete control

sample-smiles: Cc1nn(C)c(=O)c(-c2c(C)sc3ccc(Br)cc23)c1O
assayed-target: blackgrass (Alopecurus myosuroides)
Blackgrass plant response rating: 45

sample-smiles: CCc1ccc2ccccc2c1-c1c(O)c(C)nn(C)c1=O
assayed-target: blackgrass (Alopecurus myosuroides)
Blackgrass plant response rating: 90

sample-smiles: CCC(=O)Oc1c(C)nn(C)c(=O)c1-c1ccc(Br)c2ccccc12
assayed-target: blackgrass (Alopecurus myosuroides)
Blackgrass plant response rating: 75

sample-smiles: COC(=O)Oc1cnn(C)c(=O)c1-c1c(C)sc2ccccc12
assayed-target: blackgrass (Alopecurus myosuroides)
Blackgrass plant response rating: 5

sample-smiles: CCc1oc2ccc(C)cc2c1-c1c(O)c(C)nn(C)c1=O
assayed-target: blackgrass (Alopecurus myosuroides)
Blackgrass plant response rating: 0

sample-smiles: Cc1cc2ccccc2c(-c2c(O)c(C)nn(C)c2=O)c1C
assayed-target: blackgrass (Alopecurus myosuroides)
Blackgrass plant response rating: 90

sample-smiles: Cc1nn(C)c(=O)c(-c2ccc(Br)c3ccccc23)c1O
assayed-target: blackgrass (Alopecurus myosuroides)
Blackgrass plant response rating: 30

sample-smiles: Cc1nn(C)c(=O)c(-c2cccc3ccccc23)c1O
assayed-target: blackgrass (Alopecurus myosuroides)
Blackgrass plant response rating: 85

sample-smiles: CC(=O)Oc1c(Cl)nn(C)c(=O)c1-c1c(C)sc2ccc(C(F)(F)F)cc12
assayed-target: blackgrass (Alopecurus myosuroides)
Blackgrass plant response rating: 35

###

Plant response rating, Morningglory values by entry
test system: morningglory (Ipomoea coccinea); assay: Test C greenhouse herbicide test, pre- and postemergence; format: in vivo; conditions: Preemergence, 62 g ai/ha; scale 0 to 100, 0 is no effect, 100 is complete control

sample-smiles: COC(=O)Oc1c(C)nn(C)c(=O)c1-c1ccc(Br)c2ccccc12
Plant response rating, Morningglory: 80

sample-smiles: COC(=O)Oc1cnn(C)c(=O)c1-c1c(C)sc2ccccc12
Plant response rating, Morningglory: 30

sample-smiles: CC(=O)Oc1c(Cl)nn(C)c(=O)c1-c1c(C)sc2ccc(Cl)cc12
Plant response rating, Morningglory: 80

sample-smiles: CCc1sc2c(C)cc(C)cc2c1-c1c(O)c(C)nn(C)c1=O
Plant response rating, Morningglory: 100

sample-smiles: COC(=O)Oc1c(C)nn(C)c(=O)c1-c1c(C)sc2ccc(C)cc12
Plant response rating, Morningglory: 90

sample-smiles: Cc1cc2ccccc2c(-c2c(O)c(C)nn(C)c2=O)c1C
Plant response rating, Morningglory: 80

sample-smiles: Cc1nn(C)c(=O)c(-c2c(C)sc3c(C)cc(Cl)cc23)c1O
Plant response rating, Morningglory: 98

sample-smiles: Cn1nc(Br)c(O)c(-c2cccc3ccccc23)c1=O
Plant response rating, Morningglory: 98

sample-smiles: Cc1sc2ccccc2c1-c1c(O)c(Cl)nn(C)c1=O
Plant response rating, Morningglory: 85

###

test system: windgrass (Apera spica-venti); experiment: Test D controlled growth environment herbicide test, pre- and postemergence; format: in vivo; conditions: Preemergence, 31 g ai/ha
measured-metric: Plant response rating (scale of 0 to 100), Windgrass

compound: Cc1nn(C)c(=O)c(-c2cccc3ccccc23)c1O [Compound 11]
assayed-target: windgrass (Apera spica-venti)
quantitative-result: 25

compound: CCc1sc2ccc(C)cc2c1-c1c(O)c(C)nn(C)c1=O [Compound 47]
assayed-target: windgrass (Apera spica-venti)
quantitative-result: 5

compound: CCCC(=O)Oc1c(C)nn(C)c(=O)c1-c1c(C)sc2ccc(C)cc12 [Compound 105]
assayed-target: windgrass (Apera spica-venti)
quantitative-result: 75

compound: Cc1cc2ccccc2c(-c2c(O)c(C)nn(C)c2=O)c1C [Compound 34]
assayed-target: windgrass (Apera spica-venti)
quantitative-result: 15

compound: Cc1ccc2sc(Br)c(-c3c(O)c(C)nn(C)c3=O)c2c1 [Compound 79]
assayed-target: windgrass (Apera spica-venti)
quantitative-result: 25
